- Species: Rattus norvegicus
- test_method_notes: Open TG-GATES - Regimen: Daily Repeat
- Assay type: toxicity, organism-based, Sprague-Dawley
- Design: regimen Daily Repeat, gender Male, age 6 weeks
- condition_parameters: in vivo, po, 100 mg/kg, […], tissue Plasma, route gavage, dose level Low, time 28 day
# key: entry, value: RALB
value_type: RALB (g/dL)

# molecule, value_type, recorded_measurement
rows = [
    ("Cc1nnc2n1-c1ccc(Cl)cc1C(c1ccccc1Cl)=NC2 [TRIAZOLAM]", "RALB", 2.7),
    ("CN/C(=N/CCSCc1nc[nH]c1C)NC#N [CIMETIDINE]", "RALB", 3.5),
    ("CCOc1ccc(NC(C)=O)cc1 [PHENACETIN]", "RALB", 2.9),
    ("O=C(OC[C@H]1O[C@@H](OC(=O)c2cc(O)c(O)c(OC(=O)c3cc(O)c(O)c(O)c3)c2)[C@H](OC(=O)c2cc(O)c(O)c(OC(=O)c3cc(O)c(O)c(O)c3)c2)[C@@H](OC(=O)c2cc(O)c(O)c(OC(=O)c3cc(O)c(O)c(O)c3)c2)[C@@H]1OC(=O)c1cc(O)c(O)c(OC(=O)c2cc(O)c(O)c(O)c2)c1)c1cc(O)c(O)c(OC(=O)c2cc(O)c(O)c(O)c2)c1 [TANNIC ACID]", "RALB", 3.8),
    ("CNC(=C[N+](=O)[O-])NCCSCc1ccc(CN(C)C)o1 [RANITIDINE]", "RALB", 3.5),
    ("COC(=O)C1=C(C)NC(C)=C(C(=O)OC)C1c1ccccc1[N+](=O)[O-] [NIFEDIPINE]", "RALB", 2.8),
]

----------
- Species on record: Rattus norvegicus
- test_method_notes: Open TG-GATES - Regimen: Daily Repeat
- Type: toxicity, organism-based, Sprague-Dawley
- Set-up: regimen Daily Repeat, gender Male, age 6 weeks
- condition_parameters: in vivo, po, 100 mg/kg, […], tissue Blood, route gavage, dose level Low, time 7 day
value_type: MCV (fL)

# compound, unit_tag, recorded_measurement
records = [
    ("COC(=O)C1=C(C)NC(C)=C(C(=O)OC)C1c1ccccc1[N+](=O)[O-] [NIFEDIPINE]", "fL", 63.8),
    ("Cc1nnc2n1-c1ccc(Cl)cc1C(c1ccccc1Cl)=NC2 [TRIAZOLAM]", "fL", 62.4),
    ("CN/C(=N/CCSCc1nc[nH]c1C)NC#N [CIMETIDINE]", "fL", 62.2),
    ("CCOc1ccc(NC(C)=O)cc1 [PHENACETIN]", "fL", 60.3),
    ("CNC(=C[N+](=O)[O-])NCCSCc1ccc(CN(C)C)o1 [RANITIDINE]", "fL", 62.1),
    ("O=C(OC[C@H]1O[C@@H](OC(=O)c2cc(O)c(O)c(OC(=O)c3cc(O)c(O)c(O)c3)c2)[C@H](OC(=O)c2cc(O)c(O)c(OC(=O)c3cc(O)c(O)c(O)c3)c2)[C@@H](OC(=O)c2cc(O)c(O)c(OC(=O)c3cc(O)c(O)c(O)c3)c2)[C@@H]1OC(=O)c1cc(O)c(O)c(OC(=O)c2cc(O)c(O)c(O)c2)c1)c1cc(O)c(O)c(OC(=O)c2cc(O)c(O)c(O)c2)c1 [TANNIC ACID]", "fL", 63.3),
]
